Test system: SK-MEL-28 melanoma
experiment_summary: NCI tumour cell line growth inhibition, 48 h
property: TGI

Solved cases (8 shown):
INSERT INTO assay_data (molecule, test_value) VALUES
  ('Nc1ccccc1C#CC#Cc1ccccc1N', '> 100 µM'),
  ('COc1c2c(c(OC)c3c1c(=O)c1ccccc1n3C)OCO2', '> 100 µM'),
  ('COc1ccc(CN2C(=O)/C(=C\c3cc(OC)c(OC)c(OC)c3)c3cc(OC)ccc32)cc1', '3.3 µM'),
  ('CC(=O)ON(OC(C)=O)c1ccc(C)cc1', '> 100 µM'),
  ('Cc1ccc(/C=C2\CN(C)CC3=C2OC(N)=C(C#N)C3c2ccc(C)cc2)cc1 (stereo not drawn)', '> 71.5 µM'),
  ('Cc1ccc(C)c(NC(=O)C(=O)C(c2cnc3ccc([N+](=O)[O-])cc3n2)[N+](=O)[O-])c1 (stereo not drawn)', '> 100 µM'),
  ('CCN(CC)CCn1c(C(C)(C)C)nc2ccccc21', '> 100 µM'),
  ('C[Si](C)(C)C#CCO[Si](C)(C)C', '> 100 µM');

Field TGI (entry `Cn1ncc(=S)[nH]c1=S` ) reads > 100 µM

In plain terms, `c1ccc2c(c1)ccc1nc(-c3ccc4c(c3)OCO4)c3c(c12)CCCC3` has a documented TGI of > 100 µM

`NC(=S)/N=C/c1c(O)c2ccccc2oc1=O` yielded TGI of > 100 µM

---

System: HCT-116 colon
experiment_summary: NCI tumour cell line growth inhibition, 48 h
TGI: recorded values
A number alone suffices; assume µM.

INSERT INTO assay_data (molecule, experimental_system, property, test_value) VALUES
  ('C=C1C(=O)O[C@@H]2C[C@@H]1CC[C@]1(C)O[C@H]1CC[C@@]1(C)O[C@@H]1CC[C@@]2(C)O', 'HCT-116 colon', 'TGI', 65.9),
  ('C/C(=N/NC(=S)Nc1ccccc1Cl)c1ccccn1', 'HCT-116 colon', 'TGI', 14.2),
  ('Brc1cccc(/C=C/CN2CCN(CCOC(c3ccccc3)c3ccccc3)CC2)c1', 'HCT-116 colon', 'TGI', 28.9);

Looking up `CCN(CC)c1ccc(/C=C(\C#N)c2nc(N)nc(N3N=C(C)CC3(C)C)n2)cc1` , I found its TGI recorded as 34.1

---

Tested on: SK-MEL-28 melanoma
experiment_summary: NCI tumour cell line growth inhibition, 48 h
The compounds listed here are annotated with their TGI.

Below, each entry is followed by its recorded TGI result.
INSERT INTO measurements (compound, experimental_system, test_value) VALUES
  ('C/C(CN1C(=O)c2ccccc2C1=O)=N\NS(=O)(=O)c1cccc([N+](=O)[O-])c1', 'SK-MEL-28 melanoma', '> 100 µM'),
  ('CN(C)c1ccc(-c2cc(=O)c3ccccc3[nH]2)cc1', 'SK-MEL-28 melanoma', '> 100 µM'),
  ('CC(=O)Nc1ccc(/C=C(\NC(=O)c2ccccc2)c2nc3ccc4c(c3[nH]2)C(=O)c2ccccc2C4=O)cc1', 'SK-MEL-28 melanoma', '> 100 µM');

// assay SK-MEL-28 melanoma, entry Cc1ccc(C)c(NC(=O)C(=O)C2C(=O)C3=C(CC2(C)C)Nc2ccccc2S3)c1 (centres undefined) , TGI value = > 100 µM

Noted TGI for COc1c(CC=C(C)C)c(O)c(C(CC(C)C)c2c(O)c(C(C)=O)c(O)c3c2OC(C(C)(C)O)C3)c(O)c1C(C)=O (centres undefined) , tested on SK-MEL-28 melanoma: > 12.5 µM
